# TEST DESCRIPTION: Half life in human liver microsomes
# Assay type: ADME

{"columns": ["COMPOUND", "REPORTED RELATION", "half-life, h"],
 "data": [
  ["COc1ccc2c(c1)[C@@H]1C[C@]1(C(=O)N1[C@@H]3CC[C@H]1CN(C)C3)Cn1c-2c(C2CCCCC2)c2ccc(C(=O)NS(=O)(=O)N(C)C)cc21 [BECLABUVIR]", "=", 0.75],
  ["COc1ccc2c(c1)C1CC1(C(=O)N1C3CCC1CN(C)C3)Cn1c-2c(C2CCCCC2)c2ccc(C(=O)NS(=O)(=O)N3CCC3)cc21 (racemic)", "=", 2.25],
  ["CCCS(=O)(=O)NC(=O)c1ccc2c(C3CCCCC3)c3n(c2c1)CC1(C(=O)N2C4CCC2CN(C)C4)CC1c1cc(OC)ccc1-3 (racemic)", "=", 1.87],
  ["CCS(=O)(=O)NC(=O)c1ccc2c(C3CCCCC3)c3n(c2c1)CC1(C(=O)N2C4CCC2CN(C)C4)CC1c1cc(OC)ccc1-3 (racemic)", "=", 3.43],
  ["COc1ccc2c(c1)C1CC1(C(=O)N1C3CCC1CN(C)C3)Cn1c-2c(C2CCCCC2)c2ccc(C(=O)NS(=O)(=O)C(C)(C)C)cc21 (racemic)", ">", 1],
  ["COc1ccc2c(c1)C1CC1(C(=O)N1C3CCC1CN(C)C3)Cn1c-2c(C2CCCCC2)c2ccc(C(=O)NS(=O)(=O)C3CC3)cc21 (racemic)", "=", 2.98]
]}

The reported numbers originate from ChEMBL document CHEMBL3758092.
